System: HL-60(TB) leukemia
Assay: NCI-60 one-dose screen, 48 h
Conditions: 10 µM unless noted
Experimental: Growth inhibition of the HL-60(TB) human tumor cell line is measured as a screen for anti-cancer activity. Cells are grown in 96 well plates and exposed to the test compound for 48 hours. Compounds are tested at a single concentration, which is 10^-5 M for most compounds. The reported endpoint is percent growth (GI% or GIPRCNT), where numbers from 0 - 100% represent growth inhibition, and numbers from -100% - 0 represent cell death. For example, a value of 40 represents 60% growth inhibition. […]
The panel holds about 83,000 compounds, 20% with a hit somewhere; the sample as a whole holds those more often. Calls of active or inactive are those of the source. How the source made its calls: active means growth percent below 10; inactive means the rest.
Outcome codes: active, inactive

molecule	target or test system	category
COc1cccc(/C=C2/C(=O)N(Cc3ccco3)SC2=S)c1OC	HL-60(TB) leukemia	inactive
Cc1cnc2nc(-c3ccc(N(C)C)cc3)cn2c1	HL-60(TB) leukemia	inactive
Fc1ccc(CNc2c3ccccc3nc3ccccc23)cc1	HL-60(TB) leukemia	inactive
O=C1CCC(C(=O)N/N=C/c2ccc([N+](=O)[O-])cc2)N1 (centres undefined)	HL-60(TB) leukemia	inactive
COc1cc(/C=C(\C#N)C(=O)c2ccccc2)ccc1OCc1ccccc1	HL-60(TB) leukemia	inactive
C=CCNc1ccc2c3c(cccc13)C(=O)N(N1C(=O)c3cccc4cccc(c34)C1=O)C2=O	HL-60(TB) leukemia	inactive
CC1(C)CC[C@]2(CO)CC[C@]3(C)C(=CC[C@@H]4[C@@]5(C)CC[C@H](NCO)C(C)(C)[C@@H]5CC[C@]43C)[C@@H]2C1	HL-60(TB) leukemia	active
CCOC(=O)CC(=O)OC	HL-60(TB) leukemia	inactive
CCOC(=O)/C=C(\C)Nc1ccc(N/C(C)=C/C(=O)OCC)c2c1Oc1ccccc1O2	HL-60(TB) leukemia	inactive
O=C(C(=O)N1CCCCC1)c1ccc(OC2OC(CO)C(O)C(O)C2O)cc1 (centres undefined)	HL-60(TB) leukemia	inactive
O=C(Nc1ccc(/C=C2\SC(=O)N(Cc3ccc(OC(F)(F)F)cc3)C2=O)cc1)c1ccc(Cl)c([N+](=O)[O-])c1	HL-60(TB) leukemia	inactive
Cc1ccc(-c2nc(/C=C3/C(=O)N(C)c4ccc(F)cc43)c3ccccn23)cc1	HL-60(TB) leukemia	inactive
COC(=O)/C(CCC=C(C)C)=C1\[C@@H](OC(C)=O)C[C@@]2(C)[C@H]1C[C@@H](O)[C@H]1[C@@]3(C)CC[C@H](NCc4ccccc4)[C@@H](C)[C@@H]3CC[C@@]12C	HL-60(TB) leukemia	inactive
Cn1nc(C(F)(F)F)c(-c2cc(C(F)(F)F)cc(C(F)(F)F)c2)c1-c1ccc(OCc2ccc(Cl)cc2)cc1O	HL-60(TB) leukemia	active
C=C1C(=O)O[C@H]2[C@H]1CC/C(COC(=O)CCCCCCC(=O)OC/C1=C/CC[C@@]3(C)O[C@H]3[C@H]3OC(=O)C(=C)[C@@H]3CC1)=C\CC[C@@]1(C)O[C@@H]21	HL-60(TB) leukemia	active
Fc1ccc(C2CC(c3cccc(Nc4ccncc4)c3)=NN2c2ccc(Cl)cc2)cc1 (centres undefined)	HL-60(TB) leukemia	inactive
O=Cc1ccc(O)c2ncccc12	HL-60(TB) leukemia	active
c1cnc2[nH]cc(-c3csc(-c4cn(CCCN5CCCCC5)c5ccccc45)n3)c2c1	HL-60(TB) leukemia	active
CCCCn1c(=O)c(-c2cc(-c3ccc(Cl)cc3)nc(-c3ccc(Cl)cc3)c2)cc2cc(Cl)ccc21	HL-60(TB) leukemia	inactive

Origin of the recorded values: PubChem BioAssay (NCI)
